These entries and their values trace back to patent US11279733B2.

Below, each entry is listed alongside its reported MIC K. pneumoniae GN_106, PmxR.
test system: K. pneumoniae GN_106, PmxR; details: GN 106, PmxR
Positions of bridges follow the written chain, without caps; N, C: chain ends. Non-standard residues stand in square brackets, D forms with d. Residues, ends and D or L forms follow the SMILES beside them. *: point of attachment. Ala(benzothiazol-2-yl) = N[C@@H](Cc1nc2ccccc2s1)C(=O)O; Decanoyl(3R-OH) = CCCCCCC[C@@H](O)CC(=O)*; Decanoyl = CCCCCCCCCC(=O)*; dDab = NCC[C@@H](N)C(=O)O; Octanoyl = CCCCCCCC(=O)*; dDap = NC[C@@H](N)C(=O)O; Dab = NCC[C@H](N)C(=O)O
Just the number please, in µg/mL, no unit attached.

Past entries and their recorded results:
>>> endpoint_value("CCCCCCCC(=O)N[C@H](CN)C(=O)N[C@H]1CCNC(=O)[C@H](CC(C)C)NC(=O)[C@H](CCN)NC(=O)[C@H](CCN)NC(=O)[C@H](CC(C)C)NC(=O)[C@@H](Cc2ccccc2)NC(=O)[C@H](CCN)NC1=O [compound 8976] (Octanoyl-[dDap][Dab][Dab][dF]L[Dab][Dab]L; lactam 2-C)")
16
>>> endpoint_value("CCCCCCC[C@@H](O)CC(=O)N[C@H](CCN)C(=O)N[C@H]1CCNC(=O)[C@H](Cc2nc3ccccc3s2)NC(=O)[C@H](CCN)NC(=O)[C@H](CCN)NC(=O)[C@H](CC(C)C)NC(=O)[C@@H](Cc2ccccc2)NC(=O)[C@H](CCN)NC1=O [compound 8910] ({Decanoyl(3R-OH)}-[dDab][Dab][Dab][dF]L[Dab][Dab][Ala(benzothiazol-2-yl)]; lactam 2-C)")
4

# input for lookup
Retrieve MIC K. pneumoniae GN_106, PmxR on K. pneumoniae GN_106, PmxR; query CCCCCCCCCC(=O)N[C@H](CN)C(=O)N[C@H]1CCNC(=O)[C@H](CC(C)C)NC(=O)[C@H](CCN)NC(=O)[C@H](CCN)NC(=O)[C@H](CC(C)C)NC(=O)[C@@H](Cc2ccccc2)NC(=O)[C@H](CCN)NC1=O [compound 9192] (Decanoyl-[dDap][Dab][Dab][dF]L[Dab][Dab]L; lactam 2-C)
8
